# Test system: VRE 1002
# Format: cell-based, Enterococcus faecalis
Bridge positions count the residues as written; N and C are the ends. Square brackets hold non-standard residues; d marks the D form. Peptide text beside a SMILES is read from it. dNMeF = CN[C@H](Cc1ccccc1)C(=O)O
measured.endpoint: MIC (µg/mL)
Reply numerically in µg/mL, unit not repeated.

Ask: Specify reported MIC for the molecule shown: CC[C@@H](C)[C@@H](NC(=O)[C@@H](CCC(N)=O)NC(=O)[C@H](CCCNC(=N)N)NC(=O)[C@@H](NC(=O)[C@@H](Cc1ccccc1)NC)[C@@H](C)CC)C(=O)N[C@H](C(=O)N[C@@H](CO)C(=O)N[C@H]1C(=O)N[C@@H](C)C(=O)N[C@@H](CC(C)C)C(=O)N[C@@H]([C@@H](C)CC)C(=O)O[C@H]1C)[C@@H](C)CC [Compound 25, Arg3-Leu10-teixobactin] (H-[dNMeF]IR[dQ][dI]IS[dT]ALI; ester 8-C)
Reply: 0.5
